# System: Plasmodium falciparum
# protocol description: Calibr Malaria Delayed Death Assay SOP
# Format: functional, organism-based
# Parameters: scale not given: in the data most compounds retested in dose-response had high values
# condition info: concentration 4.99e-06 (unit not given; other assays of the set use mol/L)
Screen size: about 38,000 compounds; about 1,200 (3.2%) showed an effect of 50% or more. The median lay at about -58%. This is one part of a sample in which strong results are shown more often than they occur.
Assign labels as follows, please: Met for Percent Effect below -30%; Not met for Percent Effect equal to or exceeding -30%.

Answer whether the compound Cc1nn(C)c(Oc2ccccc2)c1CNC1CCCCNC1=O (centres undefined) has Percent Effect strictly less than -30%
Not met

Answer whether the compound CCC1CN(CC(=O)NCCN2CCCCCC2)c2ccccc2S1 (centres undefined) has Percent Effect strictly less than -30%
Not met

Answer whether the compound CCC1CN(CC(=O)NCCN(CC)CC)c2ccccc2S1 (centres undefined) has Percent Effect strictly less than -30%
Not met

Answer whether the compound CCc1cc(CNC(=O)N2Cc3ccccc3N(C)CC2C)on1 (centres undefined) has Percent Effect strictly less than -30%
Met

Answer whether the compound CC1N(c2cnn(C)c2)C(=O)COC12CCN(CC1CC1)CC2.O=C(O)C(F)(F)F (centres undefined) has Percent Effect strictly less than -30%
Met

Answer whether the compound "CCc1nc(C(=O)N2CCN(C)c3ccccc32)c[nH]1" has Percent Effect strictly less than -30%
Met

Answer whether the compound "CC(=O)Nc1ccc(-c2ccccc2CCN)cc1" has Percent Effect strictly less than -30%
Met

Answer whether the compound "Cc1ccc(N(C)C2CCN(C(=O)CCc3ccco3)CC2)nn1" has Percent Effect strictly less than -30%
Met
